Target: Cdk2(T182C) (C177A) (Homo sapiens, UniProt P24941, C177A/T182C)
Construct: poly-histidine; made in house; host or cells: E. coli
Test: Kinetic thiol consumption assay with Cdk2 mutant T182C
Format: binding
Details: Protein: Cdk2; cysteine position T182C; additional mutation C177A; in h^-1
observation_type: Rate constant with Cdk2 T182C

Recorded Rate constant with Cdk2 T182C, per entry:
- compound: "C=CC(=O)N1CCCCCC1C/C=C/c1ccccc1 (stereo not drawn)"
  recorded_value: 0.1161
- compound: "C=CC(=O)N1CCC2(CCCCCC2)C1"
  recorded_value: 0.05399
- compound: "C=CC(=O)N1CCN(c2cc(N3CCOCC3)ncn2)CC1"
  recorded_value: 0.0479

1: C=CC(=O)N(c1ccc2c(c1)OCCO2)C1CC1
2: C=CC(=O)N1CCC(NC(=O)C2CCC2)C1 (stereo not drawn)
3: C=CC(=O)N1CCc2cc(-c3cccc(F)c3)ccc21
[ask] Arrange the 3 compounds from largest to smallest Rate constant with Cdk2 T182C. Labels, ranked as asked.
[reply] 3, 1, 2
(3: 0.08115, 1: 0.04668, 2: 0.01771)

###

Target: Cdk2(R122C) (C177A) (Homo sapiens, UniProt P24941, C177A/R122C)
Construct: poly-histidine; made in house; host or cells: E. coli
Assay: Kinetic thiol consumption assay with Cdk2 mutant R122C
Format: binding
Set-up: key: rate constant with Cdk2 ÷ rate constant with model thiol (fold)
Details: Cdk2 R122C, additional mutation C177A
observation_type: Rate enhancement, Cdk2 R122C

- compound: "C=CC(=O)N(C)C1C2CCOC2C1(C)C (stereo not drawn) [CA-182]"
  recorded_value: 1.368
- compound: "C=CC(=O)N1CCCC1c1ccc(OC)cc1 (stereo not drawn) [EL-1062]"
  recorded_value: 0.606
- compound: "O=C(c1ccccc1)[C@@H]1O[C@H]1c1ccccc1 [EN006]"
  recorded_value: 0.411

a: C=CC(=O)N1CCN(c2ccccc2C(N)=O)CC1 [EL-1155]
b: C=CC(=O)N1C(C(=O)c2ccccc2)C1c1ccccc1 (stereo not drawn) [CA-53]
c: C=CC(=O)NCCN1CCOCC1 [BN-346]
d: C=CC(=O)NCc1ccc(F)cc1 [BN-62]
e: C=CC(=O)N1CCCC2(CCCc3ccccc32)C1 (stereo not drawn) [CA-084]
[ask] Please put the entries in order of rising Rate enhancement, Cdk2 R122C. Labels, ranked as asked.
[reply] c, d, e, a, b

###

Molecular target: Cdk2(R122C) (C177A) (Homo sapiens, UniProt P24941, C177A/R122C)
Construct: poly-histidine; made in house; host or cells: E. coli
Experiment: Kinetic thiol consumption assay with Cdk2 mutant R122C
Assay type: binding
Parameters: key: rate constant with Cdk2 ÷ rate constant with model thiol (fold)
Settings: Cdk2 R122C, additional mutation C177A
Procedure: To wells containing 150 μL thiol (Cdk2 or model thiol) (5 μM) in degassed phosphate buffer (pH 8) was added immobilized TCEP beads (2% v/v). After incubation of the fluorescence plates for 1 hour at room temperature, fluorescence measurements (excitation/emission of 380/470 nm) were taken on a PerkinElmer EnVision multilabel plate reader and processed with EnVision Workstation version 1.12. Fluorescence measurements were normalized against a DMSO/thiol only control and plotted against time. […]
observation_type: Rate enhancement, Cdk2 R122C

Recorded Rate enhancement, Cdk2 R122C, per entry:
- molecule: "C=CC(=O)N1CCC2(CC1)NC(=O)C1(CCCCC1)N2 [CA-129/235]"
  Rate enhancement, Cdk2 R122C: 0.925
- molecule: "C=CC(=O)NC1CC(NC(=O)C2CCC2)C1 (stereo not drawn) [CA-202]"
  Rate enhancement, Cdk2 R122C: 0.2272
- molecule: "C=CC(=O)N(Cc1ccc2c(c1)CCO2)C1CCCC1 [CA-184]"
  Rate enhancement, Cdk2 R122C: 0.7583

a: C=CC(=O)Nc1ccc(C(=O)OC)cc1 [CA-028]
b: C#CCN1CCCN(C(=O)C=C)CC1 [CA-196]
c: C=CC(=O)N(c1ccc2c(c1)OCCO2)C1CC1 [CA-167]
d: C=CC(=O)NCc1ccc(OC)cc1 [BN-63]
[ask] Arrange the 4 molecules from largest to smallest Rate enhancement, Cdk2 R122C. Labels, ranked as asked.
[reply] b, a, c, d
